assayTarget: human Y2 receptor (human) (UniProt P49146)
Sequence (P49146 whole entry): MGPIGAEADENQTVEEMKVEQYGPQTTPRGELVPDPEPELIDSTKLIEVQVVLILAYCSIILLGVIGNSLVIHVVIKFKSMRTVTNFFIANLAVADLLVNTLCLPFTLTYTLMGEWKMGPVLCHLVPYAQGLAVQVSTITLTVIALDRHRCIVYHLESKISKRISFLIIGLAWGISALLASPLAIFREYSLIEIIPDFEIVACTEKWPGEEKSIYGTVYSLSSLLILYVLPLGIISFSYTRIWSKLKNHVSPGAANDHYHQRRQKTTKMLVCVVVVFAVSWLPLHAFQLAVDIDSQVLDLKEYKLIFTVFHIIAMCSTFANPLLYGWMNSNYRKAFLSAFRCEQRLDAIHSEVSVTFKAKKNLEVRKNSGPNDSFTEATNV
method: RBA: displacement of [125I]-PYY from hY2R/CHO membranes
Non-standard residues stand in square brackets, D forms with d. *: point of attachment. X4 = ((1S)-1-Carboxy-3-methylbutyl)carbamoyl, CC(C)C[C@H](NC(=O)*)C(=O)O; 4Pal = N[C@@H](Cc1ccncc1)C(=O)O; d(pGlu) = O=C1CC[C@H](C(=O)O)N1; dHyp = O=C(O)[C@H]1C[C@H](O)CN1; Cha = N[C@@H](CC1CCCCC1)C(=O)O; Nle = CCCC[C@H](N)C(=O)O; Aib = CC(C)(N)C(=O)O
outcomeMeasure: IC50 Ratio (IC50 compound/IC50 PYY(3-36))
When you answer, write just the number.

Field: example entries. Status: answers known.
Q) Which IC50 Ratio (IC50 compound/IC50 PYY(3-36)) is listed for [d(pGlu)]R[4Pal][Cha][Aib]NK[Aib]TRQR[Cha]-NH2 (SMILES C[C@@H](O)[C@H](NC(=O)C(C)(C)NC(=O)[C@H](CCCCN)NC(=O)[C@H](CC(N)=O)NC(=O)C(C)(C)NC(=O)[C@H](CC1CCCCC1)NC(=O)[C@H](Cc1ccncc1)NC(=O)[C@H](CCCNC(=N)N)NC(=O)[C@H]1CCC(=O)N1)C(=O)N[C@@H](CCCNC(=N)N)C(=O)N[C@@H](CCC(N)=O)C(=O)N[C@@H](CCCNC(=N)N)C(=O)N[C@@H](CC1CCCCC1)C(N)=O) [[D-pGlu24, Pya(4)26, Cha27,36, Aib28,31, Lys30]-PYY(24-36)] ?
A) 2

Q) Which IC50 Ratio (IC50 compound/IC50 PYY(3-36)) is listed for Ac-E[dHyp]RH[Cha][Cha]NK[Aib]TRQR[Cha]-NH2 (SMILES CC(=O)N[C@@H](CCC(=O)O)C(=O)N1C[C@@H](O)C[C@@H]1C(=O)N[C@@H](CCCNC(=N)N)C(=O)N[C@@H](Cc1c[nH]cn1)C(=O)N[C@@H](CC1CCCCC1)C(=O)N[C@@H](CC1CCCCC1)C(=O)N[C@@H](CC(N)=O)C(=O)N[C@@H](CCCCN)C(=O)NC(C)(C)C(=O)N[C@H](C(=O)N[C@@H](CCCNC(=N)N)C(=O)N[C@@H](CCC(N)=O)C(=O)N[C@@H](CCCNC(=N)N)C(=O)N[C@@H](CC1CCCCC1)C(N)=O)[C@@H](C)O) [Ac-[Glu23, D-Hyp24, Cha27,28,36, Lys30, Aib31]-PYY(23-36)] ?
A) 0.8

Q) Which IC50 Ratio (IC50 compound/IC50 PYY(3-36)) is listed for X4-Q[dP]R[4Pal][Cha][Aib]NK[Aib]TRQR[Cha]-NH2 (not fully specified; printed as [(1S)-1-Carboxy-3-methylbutyl]carbamoyl-[Gln23, D-Pro24, Pya(4)26, Cha27,36, Aib28,31, Lys30]-PYY(23-36)) ?
A) 0.93

Next binder, please.
Q) Which IC50 Ratio (IC50 compound/IC50 PYY(3-36)) is listed for Ac-S[dP][Nle][4Pal][Cha][Aib]NK[Aib]TRQR[Cha]-NH2 (SMILES CCCC[C@H](NC(=O)[C@H]1CCCN1C(=O)[C@H](CO)NC(C)=O)C(=O)N[C@@H](Cc1ccncc1)C(=O)N[C@@H](CC1CCCCC1)C(=O)NC(C)(C)C(=O)N[C@@H](CC(N)=O)C(=O)N[C@@H](CCCCN)C(=O)NC(C)(C)C(=O)N[C@H](C(=O)N[C@@H](CCCNC(=N)N)C(=O)N[C@@H](CCC(N)=O)C(=O)N[C@@H](CCCNC(=N)N)C(=O)N[C@@H](CC1CCCCC1)C(N)=O)[C@@H](C)O) [Ac-[D-Pro24, Nle25, Pya(4)26, Cha27,36, Aib28,31, Lys30]-PYY(23-36)] ?
A) 3
